Target: UniProt Q96RU2
Sequence (Q96RU2 whole entry): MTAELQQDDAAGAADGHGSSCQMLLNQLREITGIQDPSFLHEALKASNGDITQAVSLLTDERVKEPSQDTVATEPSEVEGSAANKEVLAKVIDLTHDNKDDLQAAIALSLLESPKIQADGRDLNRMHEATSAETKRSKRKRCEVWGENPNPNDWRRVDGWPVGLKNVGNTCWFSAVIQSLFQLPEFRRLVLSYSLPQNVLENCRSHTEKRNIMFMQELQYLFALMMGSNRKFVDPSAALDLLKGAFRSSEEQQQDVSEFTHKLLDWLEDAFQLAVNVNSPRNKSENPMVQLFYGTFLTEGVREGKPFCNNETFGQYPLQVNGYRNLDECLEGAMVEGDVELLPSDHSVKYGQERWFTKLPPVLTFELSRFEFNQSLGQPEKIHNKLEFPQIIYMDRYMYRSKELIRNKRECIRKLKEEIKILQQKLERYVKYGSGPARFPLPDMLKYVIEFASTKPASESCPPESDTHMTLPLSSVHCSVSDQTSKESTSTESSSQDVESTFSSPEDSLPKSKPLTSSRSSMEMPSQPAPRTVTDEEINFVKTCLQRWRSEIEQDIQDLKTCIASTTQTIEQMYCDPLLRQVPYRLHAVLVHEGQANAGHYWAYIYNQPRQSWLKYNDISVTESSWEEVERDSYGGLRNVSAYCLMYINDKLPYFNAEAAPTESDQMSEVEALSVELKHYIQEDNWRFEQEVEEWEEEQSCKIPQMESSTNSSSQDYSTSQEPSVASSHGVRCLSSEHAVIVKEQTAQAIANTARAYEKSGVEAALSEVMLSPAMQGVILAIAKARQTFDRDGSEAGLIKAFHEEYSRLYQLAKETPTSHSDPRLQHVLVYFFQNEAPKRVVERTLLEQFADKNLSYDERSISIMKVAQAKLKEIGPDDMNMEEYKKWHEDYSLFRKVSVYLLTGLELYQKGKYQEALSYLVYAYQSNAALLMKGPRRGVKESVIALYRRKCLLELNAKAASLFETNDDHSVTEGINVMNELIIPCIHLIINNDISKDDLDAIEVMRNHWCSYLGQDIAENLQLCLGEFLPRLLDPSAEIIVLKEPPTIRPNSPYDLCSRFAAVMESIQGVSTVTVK
pIC50: −log10 of the molar value.
property.measured: pIC50

Guide cases for pIC50, answers given:
| entry.smiles | val |
| --- | --- |
| CNC1CCN(c2ccc(CCNC(=O)c3sc4nc(C)ccc4c3N)cc2)CC1 | 5.70 to 6.70 |
| Cc1ccc2c(N)c(C(=O)NCCc3ccc(N4CCNCC4)c(-c4ccc(F)cc4)c3)sc2n1 | 5.00 to 5.70 |

Moving on to another compound below.
### Prompt Identify the reported pIC50 for the following entry. `Cc1ccc2c(N)c(C(=O)NCCc3ccc(N4CCNC[C@@H]4C)cc3)sc2n1`
### Response > 6.70

====

Here the recorded IC50 is given for each entry.
Molecular target: Ubiquitin carboxyl-terminal hydrolase 25 (Homo sapiens, UniProt Q9UHP3)
Sequence (Q9UHP3 whole entry): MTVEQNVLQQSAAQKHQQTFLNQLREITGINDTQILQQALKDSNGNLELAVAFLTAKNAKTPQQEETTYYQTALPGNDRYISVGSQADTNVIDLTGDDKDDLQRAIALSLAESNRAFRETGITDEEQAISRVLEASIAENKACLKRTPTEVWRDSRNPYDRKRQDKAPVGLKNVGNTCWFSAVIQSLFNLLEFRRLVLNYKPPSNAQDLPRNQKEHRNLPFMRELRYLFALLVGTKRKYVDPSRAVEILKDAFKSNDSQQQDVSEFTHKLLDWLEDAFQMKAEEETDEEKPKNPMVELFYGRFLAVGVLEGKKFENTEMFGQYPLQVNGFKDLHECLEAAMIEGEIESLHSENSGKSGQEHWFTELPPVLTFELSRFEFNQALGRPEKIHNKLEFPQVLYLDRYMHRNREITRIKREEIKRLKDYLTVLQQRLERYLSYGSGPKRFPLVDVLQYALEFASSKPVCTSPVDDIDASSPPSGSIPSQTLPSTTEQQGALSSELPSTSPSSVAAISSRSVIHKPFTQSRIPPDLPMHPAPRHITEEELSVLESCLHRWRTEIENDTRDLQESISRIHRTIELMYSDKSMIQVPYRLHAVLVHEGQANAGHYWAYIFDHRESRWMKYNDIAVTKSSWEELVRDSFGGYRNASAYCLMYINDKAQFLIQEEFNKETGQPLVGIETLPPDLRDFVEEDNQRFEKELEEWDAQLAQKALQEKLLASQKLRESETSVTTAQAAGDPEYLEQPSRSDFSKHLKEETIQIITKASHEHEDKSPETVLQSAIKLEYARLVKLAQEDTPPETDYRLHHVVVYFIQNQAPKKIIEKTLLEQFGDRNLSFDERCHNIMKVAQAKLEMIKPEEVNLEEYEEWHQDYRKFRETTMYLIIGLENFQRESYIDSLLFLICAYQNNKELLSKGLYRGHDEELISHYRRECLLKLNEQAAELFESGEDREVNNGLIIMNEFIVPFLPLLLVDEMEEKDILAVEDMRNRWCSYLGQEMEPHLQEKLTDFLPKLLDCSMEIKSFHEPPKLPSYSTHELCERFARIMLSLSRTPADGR
Assay: Inhibition of recombinant C-terminal 6-His tagged human USP25 using ubiquitin-rhodamine 110 as substrate preincubated for 30 mins followed by substrate addition and measured after 45 mins by fluorescence based assay

The examples below pair each entry with its known result.
| molecule | property.measured | val |
| --- | --- | --- |
| Cc1ccc(-c2cc(CCNC(=O)c3sc4nc(C)ccc4c3N)ccc2N2CCNCC2)cc1 | IC50 | 2000 to 10000 nM |
| Cc1ccc2c(N)c(C(=O)NCCc3ccc(N4CCCC5(CCNCC5)C4)cc3)sc2n1 | IC50 | 200 to 2000 nM |
| Cc1ccc2c(N)c(C(=O)NCCc3ccc(N4CCN[C@H](C)C4)cc3)sc2n1 | IC50 | 200 to 2000 nM |
| Cc1ccc2c(N)c(C(=O)NCCc3ccc(N4CCCC45CCCNC5)cc3)sc2n1 (stereo not drawn) | IC50 | 200 to 2000 nM |
| Cc1ccc2c(N)c(C(=O)NCCc3ccc(N4CCNCC4)c(-c4ccccc4F)c3)sc2n1 | IC50 | 2000 to 10000 nM |

### Prompt Complete the entry with IC50 for `Cc1ccc2c(N)c(C(=O)NCCc3ccc(N4CCNCC4)c(-c4cncnc4)c3)sc2n1`
### Response 200 to 2000 nM

### Prompt Using the record for `Cc1ccc2c(N)c(C(=O)NCCc3ccc(N4CCC5(CCCNC5)CC4)cc3)sc2n1` , state its measured IC50.
### Response 200 to 2000 nM

### Prompt Look up and state reported IC50 for `Cc1ccc2c(N)c(C(=O)NCCc3ccc(N4CCNCC4)c(-c4ccc(Cl)cc4)c3)sc2n1`
### Response 2000 to 10000 nM
